target: LRRK2 G2019S (Homo sapiens, UniProt Q5S007, G2019S); assay: LRRK2 G2019S Km ATP LanthaScreen assay; format: biochemical; details: read-out: LRRK2 pIC50 (converted)
Sequence (Q5S007 whole entry G2019S): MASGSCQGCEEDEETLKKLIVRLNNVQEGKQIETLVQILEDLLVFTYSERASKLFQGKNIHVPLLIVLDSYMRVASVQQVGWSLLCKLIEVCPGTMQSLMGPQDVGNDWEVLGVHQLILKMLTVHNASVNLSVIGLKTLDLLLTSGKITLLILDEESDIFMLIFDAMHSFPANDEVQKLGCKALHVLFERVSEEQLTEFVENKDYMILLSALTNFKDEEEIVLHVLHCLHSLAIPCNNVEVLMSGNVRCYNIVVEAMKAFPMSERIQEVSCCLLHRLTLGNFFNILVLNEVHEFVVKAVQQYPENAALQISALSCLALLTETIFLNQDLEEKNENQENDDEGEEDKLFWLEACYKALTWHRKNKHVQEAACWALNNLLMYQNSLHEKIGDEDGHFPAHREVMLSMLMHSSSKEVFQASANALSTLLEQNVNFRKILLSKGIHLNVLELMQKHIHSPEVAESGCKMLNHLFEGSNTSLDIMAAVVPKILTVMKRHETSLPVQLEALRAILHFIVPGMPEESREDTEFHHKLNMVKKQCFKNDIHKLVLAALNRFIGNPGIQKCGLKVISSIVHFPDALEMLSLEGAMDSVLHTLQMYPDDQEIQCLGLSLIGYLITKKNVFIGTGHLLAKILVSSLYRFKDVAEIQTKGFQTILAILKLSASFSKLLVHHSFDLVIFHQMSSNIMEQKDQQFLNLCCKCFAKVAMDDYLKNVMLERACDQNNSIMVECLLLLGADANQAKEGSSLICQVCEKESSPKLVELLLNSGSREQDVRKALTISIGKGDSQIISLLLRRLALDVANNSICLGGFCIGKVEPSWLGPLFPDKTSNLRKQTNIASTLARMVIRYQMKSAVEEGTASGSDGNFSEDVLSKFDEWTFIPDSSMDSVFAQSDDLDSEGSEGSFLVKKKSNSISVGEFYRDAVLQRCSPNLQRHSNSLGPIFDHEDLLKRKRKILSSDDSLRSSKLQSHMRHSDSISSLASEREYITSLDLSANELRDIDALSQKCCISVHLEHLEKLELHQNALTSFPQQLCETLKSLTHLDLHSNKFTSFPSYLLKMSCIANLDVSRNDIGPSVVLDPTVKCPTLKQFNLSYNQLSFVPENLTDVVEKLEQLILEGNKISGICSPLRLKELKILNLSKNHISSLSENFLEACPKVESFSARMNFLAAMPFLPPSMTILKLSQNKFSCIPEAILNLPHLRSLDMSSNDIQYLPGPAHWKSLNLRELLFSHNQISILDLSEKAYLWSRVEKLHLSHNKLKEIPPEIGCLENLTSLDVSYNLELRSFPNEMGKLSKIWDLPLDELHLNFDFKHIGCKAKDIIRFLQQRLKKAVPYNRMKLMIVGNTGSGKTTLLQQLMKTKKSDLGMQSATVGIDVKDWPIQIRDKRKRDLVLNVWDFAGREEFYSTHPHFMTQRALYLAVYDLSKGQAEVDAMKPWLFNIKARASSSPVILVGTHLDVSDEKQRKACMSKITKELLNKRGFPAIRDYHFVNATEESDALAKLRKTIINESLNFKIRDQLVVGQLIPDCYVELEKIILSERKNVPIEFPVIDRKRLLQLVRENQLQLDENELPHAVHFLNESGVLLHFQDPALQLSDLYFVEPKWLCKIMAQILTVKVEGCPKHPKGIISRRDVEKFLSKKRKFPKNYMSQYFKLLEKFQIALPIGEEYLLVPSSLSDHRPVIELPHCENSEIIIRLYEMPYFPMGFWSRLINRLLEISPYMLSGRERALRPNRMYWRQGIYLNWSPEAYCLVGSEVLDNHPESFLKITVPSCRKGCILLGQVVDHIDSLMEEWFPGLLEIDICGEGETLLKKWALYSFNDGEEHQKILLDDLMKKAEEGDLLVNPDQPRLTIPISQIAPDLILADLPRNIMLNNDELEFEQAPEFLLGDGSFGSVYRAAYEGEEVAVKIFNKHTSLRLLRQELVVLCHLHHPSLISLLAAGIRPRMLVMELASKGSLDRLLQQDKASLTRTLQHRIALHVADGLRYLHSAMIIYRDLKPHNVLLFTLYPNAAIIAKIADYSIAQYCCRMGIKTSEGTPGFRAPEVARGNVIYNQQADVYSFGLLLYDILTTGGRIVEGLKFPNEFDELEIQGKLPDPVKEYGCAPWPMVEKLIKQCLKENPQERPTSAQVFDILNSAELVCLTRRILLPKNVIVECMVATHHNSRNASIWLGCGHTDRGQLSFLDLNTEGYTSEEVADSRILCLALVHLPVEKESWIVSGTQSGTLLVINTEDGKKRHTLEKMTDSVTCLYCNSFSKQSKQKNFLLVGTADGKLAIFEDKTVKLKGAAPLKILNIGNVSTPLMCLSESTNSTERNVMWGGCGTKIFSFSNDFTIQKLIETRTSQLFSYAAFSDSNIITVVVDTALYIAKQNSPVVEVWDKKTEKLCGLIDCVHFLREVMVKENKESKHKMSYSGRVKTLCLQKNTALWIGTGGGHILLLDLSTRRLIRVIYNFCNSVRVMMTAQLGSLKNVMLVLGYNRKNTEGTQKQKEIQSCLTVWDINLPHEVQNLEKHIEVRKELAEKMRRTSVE
measure: IC50
Please report the result as a number followed by the unit.

>>> measured_result("CC1(N2CCC(c3cc4cc(NC(=O)C5CC5C(F)F)ncc4cc3Cl)CC2)COCC1O (single isomer, unassigned) [Ex-4.44]")
"0.562 nM"
>>> measured_result("Cn1cc(C2CC2C(=O)Nc2cc3cc(C4CCC(N5CC(F)C5)CC4)c(Cl)cc3cn2)cn1 (single isomer, unassigned) [Ex-5.7]")
"1.91 nM"

Hi, could you look up IC50 for each item in my list?
1. Cc1cc2cnc(NC(=O)C3C(C)C3c3cnn(C)c3)cc2cc1C1CCN(C2(C)COCC2F)CC1 (single isomer, unassigned)
2. O=C(Nc1cc2cc(C3CCN(C4COC4)CC3)c(Cl)cc2cn1)C1CC12CCC(F)(F)CC2 (single isomer, unassigned)
3. CC1(N2CCC(c3cc4cc(NC(=O)C5CCC5c5ccccn5)ncc4cc3Cl)CC2)COCC1O (single isomer, unassigned) [Ex-4.74]
4. CC1(c2ccccn2)CC1C(=O)Nc1cc2cc(C3CCN(C4(C)COCC4O)CC3)c(Cl)cc2cn1 (stereo not shown) [Ex-2.91]
5. CC1(C)CC(C(=O)Nc2cc3cc(C4(C#N)CC45CC5)ccc3cn2)CCO1 (stereo not shown) [Ex-2.57]

1: 0.0813 nM; 2: 21.4 nM; 3: 1780 nM; 4: 240 nM; 5: 2.14 nM

* * *

Field: IC50. Provide a value for each of the compounds that follow.
target: LRRK2 G2019S (Homo sapiens, UniProt Q5S007, G2019S); test: LRRK2 G2019S Km ATP LanthaScreen assay; type: biochemical; conditions: read-out: LRRK2 pIC50 (converted)
Give bare numbers, in nM.

>>> measured_result("CC1(N2CCC(c3cc4cc(NC(=O)C5CC56CCOC6)ncc4cc3Cl)CC2)COCC1F (single isomer, unassigned) [Ex-6.2]")
112

Hi, could you look up IC50 for each item in my list?
1. Cc1cc2cnc(NC(=O)C3CC34CCOC4)cc2cc1C1CCN(C2(C)COCC2F)CC1 (single isomer, unassigned) [Ex-15.9]
2. Cn1cc(C(C)(C)C(=O)Nc2cc3cc(C4CCN(C5(C)COCC5F)CC4)c(Cl)cc3cn2)cn1 (single isomer, unassigned) [Ex-6.54]

1. 2.4
2. 27.5

* * *

target: LRRK2 G2019S (Homo sapiens, UniProt Q5S007, G2019S); assay: LRRK2 G2019S Km ATP LanthaScreen assay; format: biochemical; details: read-out: LRRK2 pIC50 (converted)
Field: IC50. Provide a value for each of the molecules that follow.
Please report the result as a number followed by the unit.

Solved cases below.
>>> measured_result("CC1(N2CCC(c3cc4cc(NC(=O)C5CC5c5cccs5)ncc4cc3Cl)CC2)COCC1O (single isomer, unassigned) [Ex-4.60]")
"0.0813 nM"
>>> measured_result("O=C(Nc1cc2cc(C3CCC(N4CC(F)(F)C4)CC3)c(Cl)cc2cn1)C1CC1c1ccccn1 (single isomer, unassigned) [Ex-5.6]")
"912 nM"
>>> measured_result("O=C(Nc1cc2cc(C3CCC(N4CC(F)(F)C4)CC3)c(Cl)cc2cn1)C1CC1c1ccccn1 (single isomer, unassigned) [Ex-5.4]")
"47.9 nM"
>>> measured_result("CCOC1CC2(C1)CC2C(=O)Nc1cc2cc(C3CCN(C4(C)COCC4O)CC3)c(Cl)cc2cn1 (single isomer, unassigned) [Ex-4.29]")
"7.94 nM"
>>> measured_result("COC1CCC(C(=O)Nc2cc3cc(C4CCN(C5(C)COCC5O)CC4)c(Cl)cc3cn2)CC1 (single isomer, unassigned) [Ex-10.1]")
"10.5 nM"

Hi, could you look up IC50 for each item in my list?
1. O=C(Nc1cc2cc(C3CCOCC3)c(Cl)cc2cn1)C1CC12CCOCC2 (centres unmarked)
2. CC1(N2CCC(c3cc4cc(NC(=O)C5CC5c5cc(F)ccn5)ncc4cc3Cl)CC2)COCC1O (single isomer, unassigned) [Ex-4.40]
3. Cc1cc2cnc(NC(=O)C3CC3c3ccccn3)cc2cc1C1CCN(C2(C)COCC2F)CC1 (single isomer, unassigned) [Ex-13.1]
4. CC1(N2CCC(c3cc4cc(NC(=O)C5CC5C5CCOCC5)ncc4cc3Cl)CC2)COCC1O (single isomer, unassigned)
5. Cc1cc2cnc(NC(=O)C3CC34CCOC4)cc2cc1C1CCN(C2(C)COCC2F)CC1 (single isomer, unassigned) [Ex-15.11]

2.75 nM
257 nM
2.51 nM
0.0813 nM
70.8 nM
